EXPERIMENT SUMMARY: Determination of the Kd values of ionophores from UV-absorption Ca^2+ titration curves
Format: binding
RUN PARAMETERS: aqueous solution, 30 mmol/l tris/HCl buffer, CO2-free, pH 7.4; absorption at 248 nm; 0.00001 to 0.5 mol/l Ca^2+; calculated from found pKd
Entries and their log10(Kd)
Remember, log10 of Kd, in µM.

Solved entries:
> print(dat)
                            chemical.string  quantitative.result
1  COc1ccccc1N(CCOc1ccccc1)CCN(CC(=O)O)CC(=O)O                 3.84
2   COCCN(CCOC)c1ccccc1OCCN(CC(=O)O)CC(=O)O                 3.79
3     COc1ccc(Cl)cc1N(CCOCC(=O)O)CCOCC(=O)O                 2.86

From here, focus on the item given below.
Short answer for COCCN(CCN(CC(=O)O)CC(=O)O)c1ccccc1OC : log10(Kd) was 2.52

###

EXPERIMENT SUMMARY: Determination of the Kd values of ionophores from UV-absorption Ca^2+ titration curves
Assay type: binding
RUN PARAMETERS: aqueous solution, 30 mmol/l tris/HCl buffer, CO2-free, pH 7.4; absorption at 248 nm; 0.00001 to 0.5 mol/l Ca^2+; calculated from found pKd
MEASUREMENT LABEL: Kd (mM)
Quick note: give the figure in mM, leave out the unit.

> print(dat)
                         chemical.string  measurement.label  endpoint.unit  quantitative.result
1     CCOc1ccccc1N(CCOCC(=O)O)CCOCC(=O)O                 Kd             mM                 1.09
2  CCOCCN(CCN(CC(=O)O)CC(=O)O)c1ccccc1OC                 Kd             mM                 1.04
3      COc1ccccc1N(CCOCC(=O)O)CCOCC(=O)O                 Kd             mM                  0.2

Short answer for CCCCN(CCN(CC(=O)O)CC(=O)O)c1ccccc1OC : Kd was 9.14
